targetOfAssay: human TRPV4 (hTRPV4/CHO cells) (Homo sapiens)
Construct: expressed in transfected cells; host or cells: CHO-K1
Sequence (Q9HBA0 whole entry): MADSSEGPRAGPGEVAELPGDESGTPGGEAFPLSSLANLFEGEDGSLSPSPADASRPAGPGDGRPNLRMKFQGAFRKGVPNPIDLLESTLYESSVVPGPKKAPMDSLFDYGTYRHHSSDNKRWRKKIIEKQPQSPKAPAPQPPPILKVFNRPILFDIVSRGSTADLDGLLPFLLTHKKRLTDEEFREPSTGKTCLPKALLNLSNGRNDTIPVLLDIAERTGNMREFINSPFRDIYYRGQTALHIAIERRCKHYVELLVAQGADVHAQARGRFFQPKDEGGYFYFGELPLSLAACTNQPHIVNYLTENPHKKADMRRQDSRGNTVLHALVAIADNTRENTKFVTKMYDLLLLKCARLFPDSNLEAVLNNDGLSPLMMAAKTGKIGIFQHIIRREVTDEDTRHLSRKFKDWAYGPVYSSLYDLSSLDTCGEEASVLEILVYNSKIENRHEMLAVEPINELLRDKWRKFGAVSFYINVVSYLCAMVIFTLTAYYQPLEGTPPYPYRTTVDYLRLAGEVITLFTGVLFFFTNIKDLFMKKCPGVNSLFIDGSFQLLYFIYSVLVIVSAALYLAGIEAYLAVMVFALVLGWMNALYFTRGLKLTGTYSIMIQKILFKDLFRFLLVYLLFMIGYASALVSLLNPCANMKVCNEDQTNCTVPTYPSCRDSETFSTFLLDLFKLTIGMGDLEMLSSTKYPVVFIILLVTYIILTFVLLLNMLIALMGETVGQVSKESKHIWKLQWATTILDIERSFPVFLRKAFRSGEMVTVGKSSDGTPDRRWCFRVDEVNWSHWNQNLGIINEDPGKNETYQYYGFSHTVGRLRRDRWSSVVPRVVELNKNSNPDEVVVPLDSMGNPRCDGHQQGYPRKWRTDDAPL
assayNotes: Test Example 1: TRPV4 inhibitory activity (IC50 value), 4α-PDD stimulation, Fluo4 calcium fluorescence (FLIPR TETRA)
Assay type: cell-based
setupConditions: Test Example 1, 4α-PDD stimulation, read-out: Test 1 IC50
compounds and their reported IC50

compound: Cc1nc(C)c(-c2csc(NC(=O)C3CN(C(=O)c4ccccc4)C3)n2)s1
IC50: 1000 to 8000 nM
//
compound: Cc1nc(C)c(-c2csc(NC(Cc3ccc(Cl)cc3)C(=O)N3CCN(C)CC3)n2)s1 (racemic)
IC50: 1000 to 8000 nM
//
compound: Cc1nc(CO)sc1-c1csc(NC(=O)[C@H]2C[C@@H](N(C)CC(F)(F)F)C2)n1
IC50: 100 to 1000 nM
//
compound: O=C(Nc1nc(-c2sc(CO)nc2CO)cs1)[C@@H]1C[C@@H](c2ccccc2)CN1C(=O)OCC(F)(F)F
IC50: 100 to 1000 nM
//
compound: Cc1nc(CO)sc1-c1csc(NC(=O)C2CCN(c3ccc(Cl)cc3)C2)n1 (stereo not drawn)
IC50: < 100 nM
//
compound: Cc1nc(C)c(-c2csc(NC(=O)C3CCC3)n2)s1
IC50: 100 to 1000 nM
//
compound: O=C(Nc1nc(-c2sc(CO)nc2CO)cs1)C1CC(Oc2ccc(C(F)(F)F)cc2)C1 (stereo not drawn)
IC50: < 100 nM
//
compound: CCOC(=O)c1nc(C)sc1-c1csc(NC(=O)Cc2c(F)cccc2F)n1
IC50: < 100 nM
//
compound: Cc1nc(C)c(-c2csc(NC(=O)C3CCCCC3)n2)s1
IC50: 100 to 1000 nM
//
compound: Cc1nc(CO)sc1-c1csc(NC(=O)C2C[C@H](C(F)(F)F)CN2C(=O)C(F)(F)F)n1 (stereo partly drawn) [Compound I-465]
IC50: 100 to 1000 nM
//
compound: Cc1nc(C)c(-c2nc(NC(=O)Cc3c(F)cccc3F)sc2-c2cccc(N(C)C)c2)s1
IC50: 1000 to 8000 nM
//
compound: Cc1nc(C)c(-c2csc(NC(=O)[C@@H]3C[C@@H](c4ccccc4)CN3C(=O)C(C)C)n2)s1
IC50: 100 to 1000 nM
//
compound: Cc1nc(C)c(-c2csc(NC(=O)Cc3cccc(OC(F)(F)F)c3)n2)s1
IC50: < 100 nM
//
compound: C=C(C)c1sc(NC(=O)Cc2c(F)cccc2F)nc1-c1sc(C)nc1C
IC50: 1000 to 8000 nM
//
compound: Cc1nc(C)c(-c2csc(CCOCc3ccc(Br)cc3)n2)s1
IC50: 1000 to 8000 nM
//
compound: Cc1nc(CO)sc1-c1csc(NC(=O)C2C[C@H](C(F)(F)F)CN2C(=O)OC(C)(C)C)n1 (stereo partly drawn)
IC50: < 100 nM
//
compound: Cc1nc(C)c(-c2csc(NC(=O)[C@@H]3C[C@H](c4ccccc4)CN3C(=O)C(F)(F)F)n2)s1
IC50: < 100 nM
//
compound: Cc1nc(CO)sc1-c1csc(NC(=O)C2CC(=O)N(c3ccccc3)C2)n1 (stereo not drawn)
IC50: 100 to 1000 nM
//
compound: Cc1nc(C)c(-c2nc(NC(=O)Cc3c(F)cccc3F)sc2C(=O)Nc2ccc(C#N)cc2)s1
IC50: 1000 to 8000 nM
//
compound: O=C(Nc1nc(-c2sc(CO)nc2CO)cs1)C1CC(OCC2CC2)C1 (stereo not drawn)
IC50: 1000 to 8000 nM
//
compound: Cc1nc(CO)sc1-c1csc(NC(=O)Cn2cc(C(F)(F)F)cn2)n1
IC50: < 100 nM
//
compound: Cc1nc(C(N)=O)sc1-c1csc(NC(=O)C2CC2(F)F)n1 (stereo not drawn)
IC50: 1000 to 8000 nM
//
compound: CN(C)C(=O)NCc1nc(CO)sc1-c1csc(NC(=O)Cc2ccc(S(=O)(=O)C(F)(F)F)cc2)n1
IC50: < 100 nM
//
compound: CCOC(=O)C(C)(C)N1CC(C(=O)Nc2nc(-c3sc(C)nc3C)cs2)C1
IC50: 1000 to 8000 nM
